- test-protocol: CCTE_Shafer_MEA_acute_burst_percentage_std: CCTE's Neural Acute Assay for Standard Deviation of Burst Percentage, Shafer Lab (AID 2284018);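 further: fitted in the negative direction so actives lower burst percentage SD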
Active and inactive are the calls of the source. How the source made its calls: active means hit-call score of the fitted dose curve at least 0.9, where 1 is the maximum; inactive means score below 0.9.
Possible outcomes: 1.0 for active, 0.0 for inactive

> print(dat)
                                    molecule  label.value
 1                          Cc1ccc(C)c(O)c1C          1.0
 2  COc1ccc(S(=O)(=O)N2C(=O)[C@@](c3ccccc3OC)(N3C[C@H](O)C[C@H]3C(=O)N(C)C)c3cc(Cl)ccc32)c(OC)c1          0.0
 3  CN[C@H]1CC[C@@H](c2ccc(Cl)c(Cl)c2)c2ccc(S(N)(=O)=O)cc21          0.0
 4              CCOC(=O)C(C)(C)Oc1ccc(Cl)cc1          0.0
 5                       Cc1ccc(C(C)C)c(O)c1          0.0
 6                       C=CCc1ccc(O)c(OC)c1          0.0
 7  CC(=O)C(C)=CC1C(C)=CCCC1(C)C (configuration not stated)          0.0
 8                      Clc1cc(Cl)c(Cl)cc1Cl          0.0
 9                                CN1CCCC1=O          0.0
10  FC(F)(F)C(F)(F)C(F)(F)C(F)(F)C(F)(F)C(F)(F)CCI          0.0
11        NS(=O)(=O)c1cc2c(cc1Cl)NCNS2(=O)=O          0.0
12  C[Si]1(C)O[Si](C)(C)O[Si](C)(C)O[Si](C)(C)O1          0.0

---

- test-protocol: CEETOX_H295R_MTT_cell_viability: Viability Assessment in the CeeTox HT-H295R MTT Assay (AID 2283718)
Activity calls are given as the source filed them. How the source made its calls: active means hit-call score of the fitted dose curve at least 0.9, where 1 is the maximum; inactive means score below 0.9.
Possible outcomes: true (1) for active, false (0) for inactive

> print(dat)
                      smiles.representation  label.value
1                        COC(=O)c1ccc(O)cc1    false (0)
2         O=C(OCCCCCOC(=O)c1ccccc1)c1ccccc1    false (0)
3  C[C@]12C=CC(=O)C=C1CC[C@@H]1[C@@H]2C(=O)C[C@@]2(C)[C@H]1CC[C@]2(O)C(=O)CO     true (1)
4  Cc1oc(-c2ccccc2)nc1CCOc1cccc2c1ccn2CCC(=O)O    false (0)
5                Oc1ccc2ccccc2c1N=Nc1ccccc1    false (0)
6  Oc1ccc2c(c1)OC[C@@H](N1CCC(O)(c3ccc(F)cc3)CC1)[C@H]2O    false (0)

---

- Read-out: CD40, CD40 (gene 958)
- test-protocol: BSK_SAg_CD40: BioMAP Diversity Plus: SAg Assay for CD40 Biomarker Activity (AID 2283088)
- conditions-used: primary human HUVEC with PBMC; actives raise or lower the signal
Activity calls are given as the source filed them. How the source made its calls: active means hit-call score of the fitted dose curve at least 0.9, where 1 is the maximum; inactive means score below 0.9.
Possible outcomes: active, inactive

> print(dat)
                                    molecule  label.value
 1  CNC(=O)[C@H]1O[C@@H](n2cnc3c(NCc4cc(Cl)ccc4OCc4cc(C)no4)ncnc32)[C@H](O)[C@@H]1N     inactive
 2  COc1ccc2c(c1)c(CC(=O)O)c(C)n2C(=O)c1ccc(Cl)cc1     inactive
 3                            CCCCCCCCCCCCCO       active
 4  COCCOC[C@H](CC1(C(=O)NC2CCC(C(=O)O)CC2)CCCC1)C(=O)Oc1ccc2c(c1)CCC2 (some centres undefined)     inactive
 5  COc1cc(-c2nc(NC(=O)c3cc4cc(C)cc(C)c4n3CC(=O)O)sc2CCC2CCCCC2)c(OC)cc1Cl       active
 6  CC1=C(/C=C/C(C)=C/C=C/C(C)=C/CO)C(C)(C)CCC1       active
 7  Nc1nc(N)c2nc(CNc3ccc(C(=O)N[C@@H](CCC(=O)O)C(=O)O)cc3)cnc2n1     inactive
 8                                CCCCCCCC=O     inactive
 9  CCCCC(CC)COC(=O)CC(C(=O)OCC(CC)CCCC)S(=O)(=O)O (centres undefined)       active
10  O=c1c(O)c(-c2ccc(O)c(O)c2)oc2cc(O)cc(O)c12       active
11                          COc1cc(C=O)ccc1O     inactive
12  C[C@]12C=CC(=O)C=C1CC[C@@H]1[C@@H]2C(=O)C[C@@]2(C)[C@H]1CC[C@]2(O)C(=O)CO     inactive
13  CC(=O)C(C)=CC1C(C)=CCCC1(C)C (centres undefined)     inactive
14                      Clc1cc(Cl)c(Cl)cc1Cl     inactive
15  CC1(C)CC(N=C=O)CC(C)(CN=C=O)C1 (centres undefined)     inactive
16  Cc1nc(C)nc(N2C[C@@H](C)N(c3ccnc([C@@H](C)O)n3)[C@@H](C)C2)n1     inactive
17  CCc1c(C(=O)NN2CCCCC2)nn(-c2ccc(Cl)cc2Cl)c1-c1ccc(Br)cc1       active
18                   Cc1cc(=O)[nH]c(=S)[nH]1     inactive
19     CC(C)c1ccc(C(=O)N=C(N)N)cc1S(C)(=O)=O     inactive
20  CN[C@H]1CC[C@@H](c2ccc(Cl)c(Cl)c2)c2ccc(S(N)(=O)=O)cc21       active
21                                Nc1ccccc1N     inactive
22             CCOc1ccc2c(c1)C(C)=CC(C)(C)N2     inactive
23                               Cc1ccccc1Cl     inactive
24           Nc1ccc(S(=O)(=O)c2ccc(N)cc2)cc1     inactive

---

- test-protocol: BSK_SAg_PBMCCytotoxicity: PBMC Cytotoxicity Assessment in the BioMAP Diversity Plus: SAg Assay (AID 2283093);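 further: PBMC viability measured as Alamar Blue reduction fluorescence at 546/580 nm; fitted both ways against DMSO so a hit may be loss or gain of signal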
- conditions-used: primary human HUVEC with PBMC
Active and inactive are the calls of the source. How the source made its calls: active means hit-call score of the fitted dose curve at least 0.9, where 1 is the maximum; inactive means score below 0.9.
value-type: outcome

> print(dat)
          smiles.representation  endpoint.value
1  C=CCOC(=O)c1ccccc1C(=O)OCC=C        inactive
2           CC=Cc1ccc(O)c(OC)c1        inactive
3     CCCc1cc(=O)[nH]c(=S)[nH]1        inactive

---

- Read-out: Tumor necrosis factor receptor 1 (TNFRSF1A), TNFRSF1A (gene 7132)
- test-protocol: LTEA_HepaRG_TNFRSF1A: Life Technologies and Expression Analysis (LTEA) Assay for Tumor necrosis factor receptor 1 (TNFRSF1A) using HepaRG (AID 2283535)
- conditions-used: mRNA level, 48 h; actives raise or lower the signal
Active and inactive are the calls of the source. How the source made its calls: active means hit-call score of the fitted dose curve at least 0.9, where 1 is the maximum; inactive means score below 0.9.
Possible outcomes: 1 (yes) for active, 0 (no) for inactive

> print(dat)
                                    compound  label.value
 1                   CCCCCCCCCCCCCCCCCC(=O)O       0 (no)
 2                         CC1(C)NC(=O)NC1=O       0 (no)
 3  COc1cc(S(=O)(=O)O)c(C)cc1N=Nc1c(O)ccc2cc(S(=O)(=O)O)ccc12       0 (no)
 4  COCCOC[C@H](CC1(C(=O)NC2CCC(C(=O)O)CC2)CCCC1)C(=O)Oc1ccc2c(c1)CCC2 (some centres not stated)       0 (no)
 5                   O=[N+]([O-])C(CO)(CO)CO       0 (no)
 6                               Cc1ccccc1Cl       0 (no)
 7  NC(=O)Cn1c(=O)cc(CCN2CCN(c3nccc4sccc34)CC2)c2ccc(F)cc21       0 (no)
 8                           CCCCN(CCCC)CCCC       0 (no)
 9  C[C@]12C=CC(=O)C=C1CC[C@@H]1[C@@H]2C(=O)C[C@@]2(C)[C@H]1CC[C@]2(O)C(=O)CO       0 (no)
10                          CCCCCCCCCCCCCCCC       0 (no)
11     CC(C)c1ccc(C(=O)N=C(N)N)cc1S(C)(=O)=O      1 (yes)
12                      Clc1cc(Cl)c(Cl)cc1Cl       0 (no)
